# EXPERIMENTAL_TARGET: ABCG2 (Homo sapiens, UniProt Q9UNQ0)
# Sequence (Q9UNQ0 whole entry): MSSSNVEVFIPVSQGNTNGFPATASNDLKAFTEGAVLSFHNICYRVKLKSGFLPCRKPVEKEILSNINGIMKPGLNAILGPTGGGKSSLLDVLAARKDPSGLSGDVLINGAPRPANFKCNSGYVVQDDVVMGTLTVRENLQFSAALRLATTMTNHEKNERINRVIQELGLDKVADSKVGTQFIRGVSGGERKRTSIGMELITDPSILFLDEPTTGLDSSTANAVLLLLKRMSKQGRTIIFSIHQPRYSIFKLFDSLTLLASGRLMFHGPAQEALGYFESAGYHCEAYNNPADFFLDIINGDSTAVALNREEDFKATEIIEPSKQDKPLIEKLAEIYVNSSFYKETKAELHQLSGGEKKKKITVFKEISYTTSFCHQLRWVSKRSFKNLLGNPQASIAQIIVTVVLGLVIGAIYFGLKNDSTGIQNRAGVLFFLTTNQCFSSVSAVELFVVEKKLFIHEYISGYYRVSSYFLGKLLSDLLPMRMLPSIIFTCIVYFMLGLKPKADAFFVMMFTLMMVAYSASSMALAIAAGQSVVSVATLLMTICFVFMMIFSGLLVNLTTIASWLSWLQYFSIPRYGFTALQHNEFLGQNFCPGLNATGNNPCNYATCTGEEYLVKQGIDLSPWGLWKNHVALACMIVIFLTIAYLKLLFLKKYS
# EXPERIMENTAL_DETAILS: pheophorbide A assay, ABCG2-expressing MDCK II BCRP cells
PROPERTY_MEASURED: pIC50
pIC50 here: minus log base 10 of the concentration, concentration in moles per litre.

[[record]]
smiles_text = "COC(=O)/C(C#N)=C/c1cn(CC(=O)Nc2ccccc2OC)c2ccccc12"
property_measured = "pIC50"
observed_result = 4.00


Give its pIC50 value. Item: `COC(=O)/C(C#N)=C/c1cn(CC(=O)Nc2cccc(OC)c2)c2ccccc12`
4.36

* * *

# EXPERIMENTAL_TARGET: ABCC1 (Homo sapiens, UniProt P33527)
# Sequence (P33527 whole entry): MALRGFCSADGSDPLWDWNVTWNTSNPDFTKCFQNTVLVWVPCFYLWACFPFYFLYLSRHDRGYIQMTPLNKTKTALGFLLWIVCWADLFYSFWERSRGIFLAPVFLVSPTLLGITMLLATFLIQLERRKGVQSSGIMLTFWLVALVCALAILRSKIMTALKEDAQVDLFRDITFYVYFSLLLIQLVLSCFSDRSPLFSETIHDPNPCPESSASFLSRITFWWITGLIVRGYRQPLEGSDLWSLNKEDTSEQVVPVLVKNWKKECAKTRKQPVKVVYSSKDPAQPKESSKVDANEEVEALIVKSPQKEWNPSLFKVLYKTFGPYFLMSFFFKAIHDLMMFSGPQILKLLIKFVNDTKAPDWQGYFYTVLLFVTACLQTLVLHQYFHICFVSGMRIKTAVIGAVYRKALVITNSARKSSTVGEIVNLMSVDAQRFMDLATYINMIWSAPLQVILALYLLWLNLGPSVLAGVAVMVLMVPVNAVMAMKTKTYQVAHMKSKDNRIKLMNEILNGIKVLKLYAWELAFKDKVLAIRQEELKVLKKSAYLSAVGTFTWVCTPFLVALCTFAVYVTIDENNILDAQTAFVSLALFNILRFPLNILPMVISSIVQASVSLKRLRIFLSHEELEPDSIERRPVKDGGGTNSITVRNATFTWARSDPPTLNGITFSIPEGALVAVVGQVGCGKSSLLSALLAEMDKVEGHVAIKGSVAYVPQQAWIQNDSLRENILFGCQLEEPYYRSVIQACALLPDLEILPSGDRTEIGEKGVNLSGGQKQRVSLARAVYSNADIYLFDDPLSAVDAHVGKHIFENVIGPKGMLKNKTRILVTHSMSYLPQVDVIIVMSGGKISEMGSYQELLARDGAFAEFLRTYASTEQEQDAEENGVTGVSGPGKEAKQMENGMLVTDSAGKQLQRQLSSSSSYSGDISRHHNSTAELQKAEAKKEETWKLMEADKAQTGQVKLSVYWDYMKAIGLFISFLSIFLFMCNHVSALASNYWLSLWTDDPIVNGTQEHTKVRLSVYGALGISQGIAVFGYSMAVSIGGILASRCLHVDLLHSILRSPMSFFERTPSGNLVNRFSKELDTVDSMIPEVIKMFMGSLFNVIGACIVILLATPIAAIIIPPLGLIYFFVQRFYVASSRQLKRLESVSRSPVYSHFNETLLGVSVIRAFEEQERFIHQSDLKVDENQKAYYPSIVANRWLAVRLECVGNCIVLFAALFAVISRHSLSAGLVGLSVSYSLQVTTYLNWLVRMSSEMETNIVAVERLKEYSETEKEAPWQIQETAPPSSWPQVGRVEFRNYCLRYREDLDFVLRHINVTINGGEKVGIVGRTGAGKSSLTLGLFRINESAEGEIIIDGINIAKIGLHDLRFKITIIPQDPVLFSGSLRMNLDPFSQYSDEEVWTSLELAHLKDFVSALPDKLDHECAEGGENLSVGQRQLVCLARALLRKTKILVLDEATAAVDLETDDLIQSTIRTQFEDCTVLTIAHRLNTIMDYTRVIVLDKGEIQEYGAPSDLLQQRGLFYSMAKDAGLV
# EXPERIMENTAL_DETAILS: daunorubicin assay, ABCC1-expressing H69AR cells
# CONDITION_DETAILS: read-out: ABCC1 daunorubicin IC50 ± SEM; H69AR cells; 22, 23 constrained to reference inhibitor 35
Parameter: IC50. Scope: all listed entries.
The response must be a number in µM with no trailing unit.

[[record]]
smiles_text = "COC(=O)/C(C#N)=C/c1cn(CC(=O)Nc2cccc(OC)c2)c2ccccc12"
property_measured = "IC50"
observed_result = 19.1


Give its IC50 value. Item: `COC(=O)/C(C#N)=C/c1cn(CC(=O)Nc2ccccc2OC)c2ccccc12`
17.3

* * *

Parameter: IC50. Scope: all listed entries.
# EXPERIMENTAL_TARGET: MCT1 (Homo sapiens, UniProt P53985)
# Construct: MCT1-expressing A-549 cells[14],[15] were exposed to the MCT1 substrate 3-BP, which becomes influxed by MCT1; endogenous in cells
# Sequence (P53985 1-500): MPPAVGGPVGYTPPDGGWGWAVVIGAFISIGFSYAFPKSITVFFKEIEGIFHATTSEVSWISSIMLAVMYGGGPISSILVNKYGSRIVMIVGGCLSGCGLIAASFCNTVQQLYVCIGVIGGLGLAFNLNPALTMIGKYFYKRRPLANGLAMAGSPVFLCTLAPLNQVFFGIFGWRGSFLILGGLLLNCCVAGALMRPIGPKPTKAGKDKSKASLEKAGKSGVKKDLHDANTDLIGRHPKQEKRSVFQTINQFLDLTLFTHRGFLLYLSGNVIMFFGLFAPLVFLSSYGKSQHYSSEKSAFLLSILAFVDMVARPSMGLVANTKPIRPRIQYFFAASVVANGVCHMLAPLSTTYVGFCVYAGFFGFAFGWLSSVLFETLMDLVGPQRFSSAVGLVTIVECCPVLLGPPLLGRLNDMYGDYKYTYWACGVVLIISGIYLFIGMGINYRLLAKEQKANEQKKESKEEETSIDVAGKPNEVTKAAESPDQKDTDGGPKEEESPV
# Sequence (P35613 140-385 partner limits assumed): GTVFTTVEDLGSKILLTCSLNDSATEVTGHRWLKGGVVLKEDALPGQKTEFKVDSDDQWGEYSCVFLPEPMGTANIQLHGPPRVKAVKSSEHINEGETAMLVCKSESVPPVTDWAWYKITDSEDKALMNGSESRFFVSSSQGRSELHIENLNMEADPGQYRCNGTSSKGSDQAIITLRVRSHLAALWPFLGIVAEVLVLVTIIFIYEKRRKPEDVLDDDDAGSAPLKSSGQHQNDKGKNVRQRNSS
# EXPERIMENTAL_DETAILS: functional 3-BP cell viability assay (MCT1 transport inhibition)
# CONDITION_DETAILS: MCT1-expressing A-549 cells, 50 μM 3-BP, 72 h; read-out: MCT1 transport inhibition IC50 ± SEM
The response must be a number in nM with no trailing unit.

Give its IC50 value. Item: `COC(=O)/C(C#N)=C/c1cn(CC(=O)Nc2ccccc2)c2ccccc12`
314

Give its IC50 value. Item: `COC(=O)/C(C#N)=C/c1cn(CC(=O)Nc2cccc(OC)c2)c2ccccc12`
105

Give its IC50 value. Item: `COC(=O)/C(C#N)=C/c1cn(CC(=O)Nc2ccc(Cl)cc2)c2ccccc12`
196

Give its IC50 value. Item: `COC(=O)/C(C#N)=C/c1cn(CC(=O)Nc2c(Cl)cccc2Cl)c2ccccc12`
109

Give its IC50 value. Item: `COC(=O)/C(C#N)=C/c1cn(CC(=O)Nc2cccc3ccccc23)c2ccccc12`
193

Give its IC50 value. Item: `COC(=O)/C(C#N)=C/c1cn(CC(=O)Nc2ccccc2C)c2ccccc12`
105
